Target: UniProt:P29466
Sequence (P29466 120-297 limits assumed): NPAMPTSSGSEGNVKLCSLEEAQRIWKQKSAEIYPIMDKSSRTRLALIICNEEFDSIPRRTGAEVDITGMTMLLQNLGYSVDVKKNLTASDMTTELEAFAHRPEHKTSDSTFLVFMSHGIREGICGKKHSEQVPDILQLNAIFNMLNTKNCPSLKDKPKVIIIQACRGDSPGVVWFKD
Sequence (P29466 317-404 limits assumed): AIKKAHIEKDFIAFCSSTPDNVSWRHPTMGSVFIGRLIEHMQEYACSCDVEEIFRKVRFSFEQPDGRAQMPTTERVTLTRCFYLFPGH
measuredAttribute: IC50 (µM)

Known results for molecules:
{"columns": ["molecule", "IC50 (µM)"],
 "data": [
  ["O=C(O)CC(NC(=O)OCc1ccccc1)C(=O)CNS(=O)(=O)Cc1ccccc1 (stereo not drawn)", 168],
  ["CC(C)C(NC(=O)C(CCC(=O)O)NC(=O)CCc1ccccc1)C(=O)NC(CC(=O)O)C(=O)CNS(=O)(=O)CCc1ccccc1 (stereo not drawn)", 0.009],
  ["CC1(C)C2CC[C@]1(CS(=O)(=O)NCC(=O)C(CC(=O)O)NC(=O)OCc1ccccc1)C(=O)C2 (stereo partly drawn)", 25],
  ["O=C(O)CC(NC(=O)CN1CCc2ccccc2C1=O)C(=O)CNS(=O)(=O)Cc1ccccc1 (stereo not drawn)", 234],
  ["O=C(O)C[C@H](NC(=O)CN1CCc2ccccc2C1=O)C(=O)CNS(=O)(=O)CC12CCC(CC1)C2", 165],
  ["CC1(C)C2CCC1(CS(=O)(=O)NCC(=O)[C@@H](CC(=O)O)NC(=O)OCc1ccccc1)CC2", 35.3],
  ["CC(=O)NC(Cc1ccc(O)cc1)C(=O)NC(CCC(=O)O)C(=O)NC(C(=O)NC(CC(=O)O)C(=O)CNS(=O)(=O)CC12CCC(CC1=O)C2(C)C)C(C)C (stereo not drawn)", 0.002],
  ["O=C(O)CC(NC(=O)OCc1ccccc1)C(=O)CNS(=O)(=O)CCCc1ccccc1 (stereo not drawn)", 245]
]}

(1) O=C(O)CC(NC(=O)OCc1ccccc1)C(=O)CNS(=O)(=O)CCc1cccc2ccccc12 (stereo not drawn)
(2) O=C(O)CC(NC(=O)OCc1ccccc1)C(=O)CNS(=O)(=O)CCC1CCCCC1 (stereo not drawn)
(3) CC(C)C(NC(=O)C(CCC(=O)O)NC(=O)CCc1ccccc1)C(=O)NC(CC(=O)O)C(=O)CNS(=O)(=O)CC12CCC(CC1=O)C2(C)C (stereo not drawn)
(4) CC(NC(=O)C(NC(=O)OCc1ccccc1)C(C)C)C(=O)NC(CC(=O)O)C(=O)CNS(=O)(=O)CC12CCC(CC1=O)C2(C)C (stereo not drawn)
(5) CC(NC(=O)C(NC(=O)OCc1ccccc1)C(C)C)C(=O)NC(CC(=O)O)C(=O)CNS(=O)(=O)CCc1ccccc1 (stereo not drawn)
Write the entries in order, lowest recorded IC50 first. API: response body holds the labels in the requested order. 3, 4, 5, 1, 2
(3: 0.003 µM, 4: 0.015 µM, 5: 0.072 µM, 1: 55.6 µM, 2: 136 µM)

(1) CC(=O)NC(C(=O)NC(CC(=O)O)C(=O)CNS(=O)(=O)C[C@]12CCC(CC1=O)C2(C)C)C(C)C (stereo partly drawn)
(2) CC1(C)C2CCC1(CS(=O)(=O)NCC(=O)C(CC(=O)O)NC(=O)OCc1ccccc1)C(=O)C2 (stereo not drawn)
Endpoint returns whichever of 1 and 2 has the numerically higher IC50. Choose, then provide that item's label. 2
